Measured values drawn from paper PMC12396409 for this set.

Test system: P. falciparum 3D7 parasites
Experiment: P. falciparum growth inhibition assay, 2-cycle (120 h treatment), delayed-death screen and dose-response
Type: cell-based, Plasmodium falciparum
Conditions: library screen at 2 μg/mL, 120 h, % growth, replicate 2
Endpoint Name: Pf_120h_%Growth_Rep2
Value and unit, in that order.

Identify Pf_120h_%Growth_Rep2 associated with the compound CC(=O)[C@H]1c2c(c(O)c3c(O)cccc3c2-c2c3c(c(O)c4c(O)cccc24)C(=O)C[C@](C)(O)[C@H]3C(C)=O)C(=O)C[C@]1(C)O [A 39183A]
-2.60%

// Input: Cc1c2c(c(O)c3c(O)cccc13)C(=O)O[C@@H]2[C@@H]1[C@H](O)C(=O)C(C(N)=O)=C(O)[C@H]1N(C)C . Output its Pf_120h_%Growth_Rep2 only.
90.91%

Report Pf_120h_%Growth_Rep2, nothing else, for this compound: CCCCCCC(C)C/C(C)=C\C(/C=C(C)/C=C/C(O)C(C)(C)c1cc(O)c([C@@H]2O[C@H](CO)C[C@H](O)[C@H]2O)c(=O)o1)CO (some centres unmarked)
105.39%

Provide Pf_120h_%Growth_Rep2 value for the following compound: CCC/C=C/C=C/C1C[C@@H](O)[C@@H](O)C(=O)[C@H]1C=O (some centres unmarked)
94.53%

Retrieve Pf_120h_%Growth_Rep2 measured for C=C(NC(=O)C(=C)NC(=O)c1ccc2c(n1)-c1coc(n1)C(=C)NC(=O)C(=C)NC(=O)c1nc(oc1C)C(=C)NC(=O)C(C(C)(C)O)NC(=O)C(=C)NC(=O)c1coc(n1)/C(=C/C)NC(=O)[C@H]([C@@H](C)O)NC(=O)c1csc-2n1)C(N)=O (some centres unmarked) and print it.
106.01%

Kindly indicate its recorded Pf_120h_%Growth_Rep2. Item: O=C(/C=C/C=C/C=C/C1CCCCC1)NC1=C[C@@](O)(/C=C/C=C/C=C/C(=O)NC2=C(O)CCC2=O)[C@@H]2O[C@@H]2C1=O
82.56%

Please report the measured Pf_120h_%Growth_Rep2 for CC[C@H](C)[C@H]1O[C@]2(C=C[C@@H]1C)C[C@@H]1C[C@@H](C/C=C(\C)[C@@H](O[C@H]3C[C@H](OC)[C@@H](O[C@H]4C[C@H](OC)[C@H](O)[C@H](C)O4)[C@H](C)O3)[C@@H](C)C=C/C=C3\CO[C@@H]4[C@H](O)C(C)C=C(C(=O)O1)[C@]34O)O2 (some centres unmarked)
-9.99%

Return Pf_120h_%Growth_Rep2 for the following compound: CC(=O)NCCc1c[nH]c2ccc(O)cc12
80.80%

Output measured Pf_120h_%Growth_Rep2 for this item: CC(=O)OCc1c(O)c2c(c3c1OC(=O)c1c(C)cc(O)c(C=O)c1O3)C(O)OC2=O (centres unmarked)
110.27%

Using known records, supply Pf_120h_%Growth_Rep2 for COc1cc(C)c2c(c1)O[C@]1(C)Cc3cc4c(c(O)c3[C@H]2O1)C(=O)c1c(O)c(Cl)c(O)c(Cl)c1C4(C)C
23.09%

Identify measured Pf_120h_%Growth_Rep2 corresponding to C/C=C/[C@@H]1C=C[C@@H]2C[C@H](C)CC[C@H]2[C@]1(C)/C(O)=C1/C(=O)[C@H](CO)N(C)C1=O
117.48%
